The values you see were collected from the supplement of paper PMC10567573.

B1: PRIM1 (parent)
chain: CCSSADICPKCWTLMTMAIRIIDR

variants of: B1; experiment: protein stability index of a GFP-peptide fusion (GPS, HEK-293T) (PSI 1-6); higher = more stable; conditions: c terminus: a fixed tail appended;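 also: lentivirally expressed fusions sorted by FACS into six bins by GFP to DsRed ratio, PSI derived from sequencing read proportions per bin multiplied by bin number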
Parameter: protein stability index. Scope: all listed entries.

- CHAIN SEQUENCE: "CCSSADICPECWTLMTMAIRIIDR"
  protein stability index: 1.56
- CHAIN SEQUENCE: "CCSSADICDKCWTLMTMAIRIIDR"
  protein stability index: 1.64
- CHAIN SEQUENCE: "CCSSAWICPKCWTLMTMAIRIIDR"
  protein stability index: 2.91
- CHAIN SEQUENCE: "CCSSADICPKCWTLMTMAIRIKDR"
  protein stability index: 2.94
- CHAIN SEQUENCE: "CCSSADICPKCWYLMTMAIRIIDR"
  protein stability index: 2.19
- CHAIN SEQUENCE: "CCSSADICPKCWTLMTWAIRIIDR"
  protein stability index: 2.19
- CHAIN SEQUENCE: "CCSSADICPKCWILMTMAIRIIDR"
  protein stability index: 2.13
- CHAIN SEQUENCE: "CCPSADICPKCWTLMTMAIRIIDR"
  protein stability index: 1.28
- CHAIN SEQUENCE: "CCSSADICPKCWTLNTMAIRIIDR"
  protein stability index: 2.29
- CHAIN SEQUENCE: "CCSSADICPKCWTLMTMAKRIIDR"
  protein stability index: 2.77
- CHAIN SEQUENCE: "CCSSMDICPKCWTLMTMAIRIIDR"
  protein stability index: 1.79
- CHAIN SEQUENCE: "CCSSADICPKCWCLMTMAIRIIDR"
  protein stability index: 2.04
- CHAIN SEQUENCE: "CCSSADECPKCWTLMTMAIRIIDR"
  protein stability index: 2.21
- CHAIN SEQUENCE: "CCSSAKICPKCWTLMTMAIRIIDR"
  protein stability index: 2.14
- CHAIN SEQUENCE: "CCSSADICPKCWTLMMMAIRIIDR"
  protein stability index: 1.52
- CHAIN SEQUENCE: "CCSSADICPKCWTLMTMAIRDIDR"
  protein stability index: 2.68
- CHAIN SEQUENCE: "CCSSYDICPKCWTLMTMAIRIIDR"
  protein stability index: 3.67
- CHAIN SEQUENCE: "CCSLADICPKCWTLMTMAIRIIDR"
  protein stability index: 2.24
- CHAIN SEQUENCE: "CCSSADICPKCWTSMTMAIRIIDR"
  protein stability index: 2.39
- CHAIN SEQUENCE: "CCSSADICPKCWTRMTMAIRIIDR"
  protein stability index: 2.18
- CHAIN SEQUENCE: "CCSSADACPKCWTLMTMAIRIIDR"
  protein stability index: 1.87
- CHAIN SEQUENCE: "CCSSADICPKCWLLMTMAIRIIDR"
  protein stability index: 1.49
- CHAIN SEQUENCE: "CCSSADINPKCWTLMTMAIRIIDR"
  protein stability index: 2.83
- CHAIN SEQUENCE: "CCSSACICPKCWTLMTMAIRIIDR"
  protein stability index: 1.62
- CHAIN SEQUENCE: "CCSSADICPKCWFLMTMAIRIIDR"
  protein stability index: 1.53
- CHAIN SEQUENCE: "WCSSADICPKCWTLMTMAIRIIDR"
  protein stability index: 2.25
- CHAIN SEQUENCE: "CCSSAEICPKCWTLMTMAIRIIDR"
  protein stability index: 2.22
- CHAIN SEQUENCE: "CCSSADICPKCWTLMTMAIEIIDR"
  protein stability index: 1.83
- CHAIN SEQUENCE: "CCSSADICPKCWQLMTMAIRIIDR"
  protein stability index: 2.18
- CHAIN SEQUENCE: "CCSSADICYKCWTLMTMAIRIIDR"
  protein stability index: 1.55
- CHAIN SEQUENCE: "CCSSADICPKCWTLMTMAIRIIFR"
  protein stability index: 1.78
- CHAIN SEQUENCE: "CCSSADICPKCHTLMTMAIRIIDR"
  protein stability index: 2.19
- CHAIN SEQUENCE: "CCSSADLCPKCWTLMTMAIRIIDR"
  protein stability index: 2.56
- CHAIN SEQUENCE: "CCSSAHICPKCWTLMTMAIRIIDR"
  protein stability index: 2.49
- CHAIN SEQUENCE: "CCSSADICCKCWTLMTMAIRIIDR"
  protein stability index: 2.43
- CHAIN SEQUENCE: "CCSSADICPKCWTLMTMQIRIIDR"
  protein stability index: 2.71
- CHAIN SEQUENCE: "SCSSADICPKCWTLMTMAIRIIDR"
  protein stability index: 1.79
- CHAIN SEQUENCE: "CCSSADICPKCWNLMTMAIRIIDR"
  protein stability index: 1.38
- CHAIN SEQUENCE: "CCSSADICPKCWTLMTMAIRIIAR"
  protein stability index: 2.29
- CHAIN SEQUENCE: "CCSSAPICPKCWTLMTMAIRIIDR"
  protein stability index: 2.13
- CHAIN SEQUENCE: "CCSSGDICPKCWTLMTMAIRIIDR"
  protein stability index: 1.7
- CHAIN SEQUENCE: "CCSSADICPKCWTLMDMAIRIIDR"
  protein stability index: 2.07
- CHAIN SEQUENCE: "CCSSADICPKCWTLMTMAIRIICR"
  protein stability index: 2.19
- CHAIN SEQUENCE: "CCSSADICPKCWTLMTMAIRIIDI"
  protein stability index: 1.69
- CHAIN SEQUENCE: "CCSSADICPQCWTLMTMAIRIIDR"
  protein stability index: 1.98
- CHAIN SEQUENCE: "CCSSADICPKCWTLPTMAIRIIDR"
  protein stability index: 2.13
